Molecular target: V. destructor NTL receptor (VdNTL-R) (Varroa destructor, UniProt A0A141CIT8)
Sequence (A0A141CIT8 1-461): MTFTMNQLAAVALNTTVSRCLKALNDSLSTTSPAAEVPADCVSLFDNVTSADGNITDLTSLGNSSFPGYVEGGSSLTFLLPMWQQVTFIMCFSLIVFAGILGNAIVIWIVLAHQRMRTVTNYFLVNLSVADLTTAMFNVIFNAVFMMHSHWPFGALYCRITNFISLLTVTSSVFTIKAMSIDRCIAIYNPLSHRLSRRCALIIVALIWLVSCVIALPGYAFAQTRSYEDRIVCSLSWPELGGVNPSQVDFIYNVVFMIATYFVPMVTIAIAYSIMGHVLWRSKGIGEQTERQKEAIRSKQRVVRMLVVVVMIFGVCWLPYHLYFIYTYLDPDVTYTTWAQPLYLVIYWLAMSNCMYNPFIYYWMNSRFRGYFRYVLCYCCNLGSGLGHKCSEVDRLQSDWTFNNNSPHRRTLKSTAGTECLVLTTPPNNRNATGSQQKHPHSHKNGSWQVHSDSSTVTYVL
Assay: Aequorin calcium-mobilization reporter assay, VdNTL-R transiently expressed in CHO-K1 cells with Ga16
Assay type: cell-based
Settings: ligand 0.1 μM; relative luminescence normalized by highest activity of endogenous ligand VdNTL1; 3 biological replications
No end group written: not given here.
Measured Property: Agonistic activity, VdNTL-R 0.1μM (RLU)

INSERT INTO results (substance, result) VALUES
  ('SIGGPAPGFVGAR-NH2 [VdNTL1]', 96.2),
  ('TEENPFWANR-NH2 [BmNTL5, NTL peptide of B. mori]', 0.3),
  ('LQLRDLYNADDPFVPNRa [DmNTL5, NTL peptide of D. melanogaster]', 0.2),
  ('HRNLFQVDDPFFATRa [DmNTL4, NTL peptide of D. melanogaster]', 0.8),
  ('DLRQENDPFWGNR-NH2 [BmNTL3, NTL peptide of B. mori]', 0.4),
  ('ASGQEEFGPFWANRa [TcNTL1, NTL peptide of T. castaneum]', 1);

----------
Target: V. destructor TRP receptor (VdTRP-R) (Varroa destructor, UniProt A0A141CIT9)
Sequence (A0A141CIT9 1-437): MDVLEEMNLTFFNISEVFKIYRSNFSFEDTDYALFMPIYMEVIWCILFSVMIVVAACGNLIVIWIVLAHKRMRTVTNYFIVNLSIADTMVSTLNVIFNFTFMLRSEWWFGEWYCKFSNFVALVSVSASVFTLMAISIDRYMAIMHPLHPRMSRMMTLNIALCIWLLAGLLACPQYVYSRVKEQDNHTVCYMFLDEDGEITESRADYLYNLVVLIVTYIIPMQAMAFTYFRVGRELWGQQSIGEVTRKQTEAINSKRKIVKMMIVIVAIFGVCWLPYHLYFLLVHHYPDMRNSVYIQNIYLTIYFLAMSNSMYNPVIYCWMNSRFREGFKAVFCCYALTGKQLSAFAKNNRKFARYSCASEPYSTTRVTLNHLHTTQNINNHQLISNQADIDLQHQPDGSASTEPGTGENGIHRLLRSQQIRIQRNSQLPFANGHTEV
Test: Aequorin calcium-mobilization reporter assay, VdTRP-R transiently expressed in CHO-K1 cells with Ga16
Type: cell-based
Conditions: ligand 0.1 μM; relative luminescence normalized by highest activity of endogenous ligand VdTRP3; 3 biological replications
Excerpt: In this system, ligand-mediated G-protein-coupled receptor (GPCR) activation initiates calcium mobilization that is indicated by the increased luminescence of aequorin. The PCR amplicons of the full open reading frames (ORFs) of the three receptors were initially cloned into the pGEMT easy vector (Promega) and transferred to the expression vector pcDNA3.1(+) (Invitrogen) using the common restriction enzymes in the multi-cloning site (EcoRI for AmTRPR, NotI for both VdNTLR and VdTRPR). […]
No end group written: not given here.
So basically: Agonistic activity, VdTRP-R 0.1μM at 10 RLU or higher? That is Met. Lower than 10 RLU? That is Not met.

INSERT INTO assay_data (substance, assigned_class) VALUES
  ('SIGGPAPGFVGAR-NH2 [VdNTL1]', 'Not met'),
  ('TEENPFWANR-NH2 [BmNTL5, NTL peptide of B. mori]', 'Not met'),
  ('ALMGFQGVR-NH2 [AmTRP1]', 'Not met'),
  ('HRNLFQVDDPFFATRa [DmNTL4, NTL peptide of D. melanogaster]', 'Met'),
  ('DLRQENDPFWGNR-NH2 [BmNTL3, NTL peptide of B. mori]', 'Met'),
  ('LQLRDLYNADDPFVPNRa [DmNTL5, NTL peptide of D. melanogaster]', 'Not met'),
  ('ASGQEEFGPFWANRa [TcNTL1, NTL peptide of T. castaneum]', 'Not met'),
  ('GSFFGMR-NH2 [VdTRP3, GSFFGMRa]', 'Met');

----------
Target: A. mellifera TRP receptor (AmTRP-R) (Apis mellifera)
Sequence (A0ACM8RFV8 1-421): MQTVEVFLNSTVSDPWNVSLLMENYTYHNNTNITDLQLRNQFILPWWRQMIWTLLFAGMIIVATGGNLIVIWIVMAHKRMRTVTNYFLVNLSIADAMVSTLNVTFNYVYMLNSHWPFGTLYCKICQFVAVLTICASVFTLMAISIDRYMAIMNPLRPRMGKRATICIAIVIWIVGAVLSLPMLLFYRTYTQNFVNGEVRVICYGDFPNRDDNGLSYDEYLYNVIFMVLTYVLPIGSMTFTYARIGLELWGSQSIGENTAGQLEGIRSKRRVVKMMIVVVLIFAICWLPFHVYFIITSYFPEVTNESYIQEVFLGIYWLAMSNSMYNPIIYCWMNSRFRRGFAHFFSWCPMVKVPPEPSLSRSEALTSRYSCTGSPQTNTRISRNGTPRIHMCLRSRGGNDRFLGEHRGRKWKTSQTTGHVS
Assay: Aequorin calcium-mobilization reporter assay, AmTRP-R transiently expressed in CHO-K1 cells with Ga16
Format: cell-based
Conditions: ligand 0.01 μM; relative luminescence normalized by highest activity of endogenous ligand AmTRP1; 3 biological replications
No end group written: not given here.
Measured Property: Agonistic activity, AmTRP-R 0.01μM (RLU)

INSERT INTO measurements (substance, result) VALUES
  ('HRNLFQVDDPFFATRa [DmNTL4, NTL peptide of D. melanogaster]', 9.5),
  ('ASGQEEFGPFWANRa [TcNTL1, NTL peptide of T. castaneum]', 4.6),
  ('TEENPFWANR-NH2 [BmNTL5, NTL peptide of B. mori]', 6),
  ('ALMGFQGVR-NH2 [AmTRP1]', 69),
  ('SIGGPAPGFVGAR-NH2 [VdNTL1]', 60.2),
  ('GSFFGMR-NH2 [VdTRP3, GSFFGMRa]', 58),
  ('DLRQENDPFWGNR-NH2 [BmNTL3, NTL peptide of B. mori]', 4.7),
  ('LQLRDLYNADDPFVPNRa [DmNTL5, NTL peptide of D. melanogaster]', 6.5);

Hey, just so you know, these numbers are from paper PMC4730192.
